molecular target: CDK4-CYCLIND1 (Homo sapiens); assay: Microfluidic LabChip kinase inhibition assay, CDK4-CyclinD1; conditions: CDK4 CyclinD1 IC50 (μM), Table 3a; 200 μM ATP; second value in parentheses on the next line
Sequence (P11802 whole entry): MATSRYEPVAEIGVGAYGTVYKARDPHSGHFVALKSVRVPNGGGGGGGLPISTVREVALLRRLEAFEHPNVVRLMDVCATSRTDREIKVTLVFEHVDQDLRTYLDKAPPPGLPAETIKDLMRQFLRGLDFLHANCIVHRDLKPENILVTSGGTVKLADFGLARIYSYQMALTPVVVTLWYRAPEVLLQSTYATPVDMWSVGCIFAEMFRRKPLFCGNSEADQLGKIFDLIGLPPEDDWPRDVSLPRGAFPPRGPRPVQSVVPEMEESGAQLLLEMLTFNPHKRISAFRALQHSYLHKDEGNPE
Sequence (P24385 whole entry partner): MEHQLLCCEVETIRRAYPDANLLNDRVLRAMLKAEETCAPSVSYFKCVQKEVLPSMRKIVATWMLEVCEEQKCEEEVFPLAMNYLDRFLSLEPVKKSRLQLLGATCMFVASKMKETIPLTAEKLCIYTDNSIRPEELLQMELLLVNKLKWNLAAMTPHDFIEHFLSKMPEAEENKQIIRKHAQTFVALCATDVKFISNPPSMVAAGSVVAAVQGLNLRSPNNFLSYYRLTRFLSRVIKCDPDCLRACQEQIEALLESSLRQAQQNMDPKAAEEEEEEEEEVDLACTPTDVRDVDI
Field: log10(IC50). Provide a value for each of the compounds that follow.
Base-10 log of IC50, unit µM.

Name the recorded log10(IC50) for O=C1NCCC12Cc1cnc(Nc3ccc(OCCN4CCOCC4)cc3)nc1N2C1CCCC1 (stereo not shown) [Compound C165] .
-0.15

Name the recorded log10(IC50) for CN(C)[C@@H]1CCN(C(=O)c2ccc(Nc3ncc4c(n3)N(C3CCCC3)C3(CCNC3=O)C4)cc2)C1 (stereo partly shown) [Compound C181] .
-1.17

Name the recorded log10(IC50) for CN1CCN(c2ccc(Nc3ncc4c(n3)N(C3CCCC3)C3(CCNC3=O)C4)cc2F)CC1 (single isomer, unassigned) [Compound C206] .
0.71

Name the recorded log10(IC50) for CN1CCN(c2ccc(Nc3ncc4c(n3)N(C3CCCCC3)C3(CCNC3=O)C4)nc2)CC1 (stereo not shown) [Compound C202] .
-0.43

Name the recorded log10(IC50) for CN1CC2(C1)CN(c1ccc(Nc3ncc4c(n3)N(C3CCCC3)C3(CC(=O)NC3=O)C4)cc1F)C2 (stereo not shown) [Compound C149] .
-0.23

Name the recorded log10(IC50) for CN1CCN(c2ccc(Nc3ncc4c(n3)N(C3CCCC3)C3(CCNC3=O)C4)cc2)CC1 (stereo not shown) [Compound C115] .
-0.94

Name the recorded log10(IC50) for CC1CN(c2ccc(Nc3ncc4c(n3)N(C3CCCC3)C3(CC(=O)NC3=O)C4)cc2)CC(C)N1 (stereo not shown) [Compound C208] .
-1.18
